Test system: OVCAR-3 ovarian
measurement description: NCI tumour cell line growth inhibition, 48 h
endpoint name: TGI

Inquiry: What value of measured TGI is listed for Cc1ccc(S(=O)(=O)NC(=O)NCC(=O)NCC(=O)O)cc1 ?
Reply text: > 100 µM

Inquiry: What value of measured TGI is listed for CC(=O)n1nc(-c2nc3ccccc3nc2Cl)cc1Cl ?
Reply text: 68.2 µM

Inquiry: What value of measured TGI is listed for C[C@@H]1C[C@@H](O)[C@@]2(O)C13CC(=O)OC(C3)[C@@H](C)[C@@]2(C)CO (some centres undefined) ?
Reply text: > 100 µM

Inquiry: What value of measured TGI is listed for NCS(=O)(=O)O ?
Reply text: > 100 µM

Inquiry: What value of measured TGI is listed for COC(=O)C(/C(=N/N)C(=O)Nc1cc(Cl)c(Cl)cc1Cl)c1nc2ccc(Cl)cc2[nH]c1=O (centres undefined) ?
Reply text: > 100 µM

Inquiry: What value of measured TGI is listed for C=C1CC2(OC1=O)c1ccccc1C=Cc1ccccc12 ?
Reply text: 8.9 µM

Inquiry: What value of measured TGI is listed for COC(C/C(=C/CO[Si](C(C)C)(C(C)C)C(C)C)C(=O)Nc1ccccc1I)OC ?
Reply text: 51.8 µM

Inquiry: What value of measured TGI is listed for Fc1ccc(F)c(C2SCc3nc4ccccc4n32)c1 (centres undefined) ?
Reply text: > 100 µM

Inquiry: What value of measured TGI is listed for NC(=O)C(=CN1C(=O)CC(=O)NC1=S)C(N)=O ?
Reply text: > 100 µM

Inquiry: What value of measured TGI is listed for NC1=NC2(O)c3ccccc3C(=O)C2(O)N1 (centres undefined) ?
Reply text: > 100 µM

Inquiry: What value of measured TGI is listed for OCCSCc1cc2c(O)c(c1)Cc1cc(CSCCO)cc(c1O)Cc1cc(CSCCO)cc(c1O)Cc1cc(CSCCO)cc(c1O)C2 ?
Reply text: 4.27 µM

Inquiry: What value of measured TGI is listed for CCOC(OCC)c1ccc(/C=C/c2cc(OC)c(OC)c(OC)c2)cc1 ?
Reply text: 38 µM

Inquiry: What value of measured TGI is listed for COc1ccccc1CNC(=O)C1c2ccccc2C(=O)N(CC(C)C)C1c1cccs1 (centres undefined) ?
Reply text: 89.1 µM

Inquiry: What value of measured TGI is listed for COc1ccc(NC(=O)c2sc3nc(C)c(C(O)c4ccc(OC)cc4)cc3c2N)cc1 (centres undefined) ?
Reply text: 5.31 µM

Inquiry: What value of measured TGI is listed for C[n+]1cccc(/C=C/c2ccc3cccc(O)c3n2)c1 ?
Reply text: > 100 µM

Inquiry: What value of measured TGI is listed for COc1cccc(/C(C=O)=C(\Cl)c2ccc(OC)c(OC)c2)c1 ?
Reply text: 30.2 µM

Inquiry: What value of measured TGI is listed for Cn1c(=O)c2c(nc(C[N+]3([O-])CCOCC3)n2C)n(C)c1=O ?
Reply text: > 100 µM

Inquiry: What value of measured TGI is listed for COc1ccc(OC)c(-c2cc(-c3ccccc3)nn2-c2ccc(S(N)(=O)=O)cc2)c1 ?
Reply text: 19 µM

Inquiry: What value of measured TGI is listed for CCOC(=O)c1c2c(c(O)c3ccccc3c(O)n(-c3ccc(C)cc3)c1C)C(=O)C=CC2=O ?
Reply text: 35.2 µM

Inquiry: What value of measured TGI is listed for CCOC(=O)C1=C(NC(C)(C)C)OCC1=O ?
Reply text: > 100 µM

Inquiry: What value of measured TGI is listed for O=C1/C(=C/c2ccc([N+](=O)[O-])s2)Oc2ccccc21 ?
Reply text: 0.55 µM

Inquiry: What value of measured TGI is listed for CCCCSCc1nc2nc(Cl)c(Cl)nc2[nH]1 ?
Reply text: 36.7 µM

Inquiry: What value of measured TGI is listed for CCCCN(CCCC)CC(C)(C)C(O)c1ccc(OC)c2ccccc12 (centres undefined) ?
Reply text: 13.9 µM

Inquiry: What value of measured TGI is listed for CN1CC2=C(NC(=S)NC2c2ccc(Cl)cc2)/C(=C/c2ccc(Cl)cc2)C1 (centres undefined) ?
Reply text: 29.3 µM
